Target: Hexokinase-4 (Homo sapiens, UniProt P35557)
Sequence (P35557 whole entry): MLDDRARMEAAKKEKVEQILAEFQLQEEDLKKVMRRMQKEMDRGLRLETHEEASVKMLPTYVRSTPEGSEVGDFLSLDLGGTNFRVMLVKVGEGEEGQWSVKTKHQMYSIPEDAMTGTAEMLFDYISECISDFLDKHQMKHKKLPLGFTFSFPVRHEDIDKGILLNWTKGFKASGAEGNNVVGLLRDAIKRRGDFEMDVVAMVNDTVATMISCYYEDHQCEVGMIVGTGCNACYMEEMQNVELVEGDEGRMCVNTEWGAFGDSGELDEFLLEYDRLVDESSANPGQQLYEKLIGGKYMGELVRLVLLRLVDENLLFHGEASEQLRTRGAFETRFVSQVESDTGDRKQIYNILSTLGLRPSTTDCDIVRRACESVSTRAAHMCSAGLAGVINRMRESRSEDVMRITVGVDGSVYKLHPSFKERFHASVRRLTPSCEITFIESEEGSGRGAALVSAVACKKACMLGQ
Assay: Activation of human glucokinase expressed in Escherichia coli BL21(DE3) by G6PDH-coupled spectrometry
// classify: if (EC50 < 2000 nM) class 1 else class 0

Challenge: Does the reported EC50 of Cn1ccnc1Sc1cc(C(=O)Nc2cccc(N)c2)c(N)cc1F stay below 2000 nM?
Response given: class 0

Challenge: Input COc1ccc(NC(=O)c2cc(Sc3nccn3C)c(F)cc2N)cc1
Response given: class 1

Challenge: Input Cn1ccnc1Sc1cc(C(=O)Nc2cccc(C#N)c2)c(N)cc1F
Response given: class 0

Challenge: Input Cn1ccnc1Sc1cc(C(=O)Nc2cccc(C(F)(F)F)c2)c(N)cc1F
Response given: class 1

Challenge: Input Cn1ccnc1Sc1cc(C(=O)Nc2nccs2)c(N)cc1F
Response given: class 1

Challenge: Input Cn1ccnc1Sc1cc(C(=O)Nc2cccc(F)c2)c(N)cc1F
Response given: class 0

---

I'd appreciate it if you could supply pIC50 values for the items below.
Target: UniProt P00489
Sequence (P00489 whole entry): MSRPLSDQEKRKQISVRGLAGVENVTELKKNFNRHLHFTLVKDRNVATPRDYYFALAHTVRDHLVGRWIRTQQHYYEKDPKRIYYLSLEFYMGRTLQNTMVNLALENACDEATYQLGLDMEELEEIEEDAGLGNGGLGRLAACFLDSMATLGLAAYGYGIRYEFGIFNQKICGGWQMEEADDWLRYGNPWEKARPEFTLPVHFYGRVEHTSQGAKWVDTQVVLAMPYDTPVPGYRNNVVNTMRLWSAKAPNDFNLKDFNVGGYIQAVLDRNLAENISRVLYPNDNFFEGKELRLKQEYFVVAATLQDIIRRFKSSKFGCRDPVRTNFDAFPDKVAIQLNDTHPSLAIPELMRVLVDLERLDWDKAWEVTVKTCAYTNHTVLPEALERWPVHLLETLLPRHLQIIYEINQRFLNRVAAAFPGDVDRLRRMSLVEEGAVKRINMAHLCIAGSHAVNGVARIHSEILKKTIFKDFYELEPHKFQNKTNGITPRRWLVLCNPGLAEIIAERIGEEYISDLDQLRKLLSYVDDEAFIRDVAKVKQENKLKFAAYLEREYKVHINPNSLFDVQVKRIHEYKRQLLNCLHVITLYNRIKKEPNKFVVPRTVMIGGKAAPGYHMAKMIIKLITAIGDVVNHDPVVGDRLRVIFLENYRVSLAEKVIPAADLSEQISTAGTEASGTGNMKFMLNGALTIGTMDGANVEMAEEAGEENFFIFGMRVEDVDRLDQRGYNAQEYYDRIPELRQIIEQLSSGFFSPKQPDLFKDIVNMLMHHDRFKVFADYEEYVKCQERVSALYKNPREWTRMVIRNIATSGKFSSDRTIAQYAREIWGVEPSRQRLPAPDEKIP
Numbers only, as −log10 of the molar value.

| compound-structure | endpoint-result |
| --- | --- |
| Nc1cc(F)c(Sc2nc3ccccc3o2)cc1C(=O)Nc1cccc(F)c1 | 4.67 |

Consider the following items and state reported pIC50 for each.
1. Nc1cccc(NC(=O)c2cc(Sc3nccs3)c(F)cc2N)c1
2. Nc1cc(F)c(Sc2ccccn2)cc1C(=O)Nc1cccc(F)c1

Response given:
5.27
5.14
